System: A549
Test: Cytotoxicity against apoptotic-resistant human A549 cells assessed as growth inhibition after 72 hrs by MTT-based colorimetric assay
Type: functional, cell-based
Settings: Homo sapiens, A549, 72 h
Catalogue of pIC50 readings, one per entry.
Hey, just a heads up that pIC50 is the negative log base 10 of the concentration in molar.

C=CCCOc1ncc(-c2ccccc2OC)n1C
4.66
C=CCCCCOc1ccc(F)cc1-c1cnc(OCCC=C)n1C
4.21
Cn1c2cnc1OCCCCCCCCOc1ccc(F)cc1-2
4.24

Give pIC50 (A549) of the following compound: C=CCCCCOc1ccccc1-c1cnc(OCCC=C)n1C
5.05

Lab request: please report pIC50 under test system A549 for Cn1c2cnc1OCCCCCCCCCCOc1ccccc1-2
4.32

State its pIC50 on A549: C=CCCCCOc1ncc(-c2cc(C(C)C)ccc2OC)n1C
5.40

# returns recorded pIC50 (system: A549) for COc1ccc2c(c1)-c1cnc(n1C)OCCCCCCCCO2
4.40
